Reference source: PubChem BioAssay (NCI)

System: UACC-62 melanoma
testName: NCI tumour cell line growth inhibition, 48 h; in the data active = GI50 below about 0.43 µM; inactive = the rest
Labels: T for active, F for inactive

> print(dat)
                                   molecule  answerlabel
1  COc1ccc(/C=C\c2cc(OC)c(OC)c(OC)c2)c(NS(=O)(=O)c2ccc(F)cc2)c1O            T
2  Cc1cc(-c2cc(OC(=O)c3ccccc3)ccc2Cl)cc2nnc(Nc3ccc(OCCN4CCCC4)cc3)nc12            F
3  CC[C@@H](C)/C=C(C)/C=C/C(=O)c1c(O)c(-c2ccc(O)cc2)cn(OC2CC(=O)CCC(C)OC(=O)CC2O)c1=O (stereo partly drawn)            T
4  COC(=O)Nc1nc2ccc(C(=O)c3ccc(F)cc3)cc2[nH]1            T
5  CC(=O)N[C@@H](Cc1ccc(OP(=O)(O)O)cc1)C(=O)N[C@H]1CCC(=O)N2CCC[C@@H](C(=O)NC3CCc4ccccc43)N2C1=O (stereo partly drawn)            F
6  O=C(Nc1cccc(-n2cc(-c3ccncc3)c(-c3ccc(Cl)c(O)c3)n2)c1)Nc1ccc(Cl)c(Cl)c1            F
7  CO/C(=C1/NC(=O)C(Cc2ccc(O)c(Br)c2)N(C)C(=O)C(C)NC(=O)CCC/C=C(\C)CCC(C)OC1=O)c1ccccc1 (stereo not drawn)            T
8  COc1cc(C(=O)NN=C2c3ccccc3-c3ccccc32)cc(OC)c1OC            F

* * *

Tested on: MDA-MB-435
testName: NCI tumour cell line growth inhibition, 48 h
Could you label it Criterion met if measured TGI is 6 µM or higher, and Criterion not met otherwise?

compound	answerLabel
CO/C(=C1/NC(=O)C(Cc2ccc(O)c(Br)c2)N(C)C(=O)C(C)NC(=O)CCC/C=C(\C)CCC(C)OC1=O)c1ccccc1 (centres undefined)	Criterion met
CN(C)c1ccc(/C=c2/c3cc(O)ccc3n3c2cc(-c2ccccc2)[n+]3C)cc1	Criterion not met
O=C1CN(c2ccccc2)C(=O)CN1NCNN1CC(=O)N(c2ccccc2)CC1=O	Criterion met
CC(C)C(/C=C/c1ccc(Cl)cc1)=N\NC(=O)N/N=C(/C=C/c1ccc(Cl)cc1)C(C)C	Criterion met
CN(C)CCCCNc1ccc(NCCCCN(C)C)c2c1C(=O)c1c(O)ccc(O)c1C2=O	Criterion met
COc1cc2c(cc1OCCCN1CCN(C(=S)SCCC(C#N)(c3ccccc3)c3ccccc3)CC1)N=C[C@@H]1CCCN1C2=O	Criterion not met
CCc1ncc(CO)n1Cc1cccc2ccccc12	Criterion met
O=c1c2cc([N+](=O)[O-])ccc2n2n1CCCCC2	Criterion met
COc1ncc(-c2ccc3nccc(C#CCCCCC(=O)NO)c3c2)cc1NS(=O)(=O)c1ccc(F)cc1F	Criterion not met
Nc1cc(N)c2nc(NCCc3ccc(Cl)c(Cl)c3)cnc2c1	Criterion met
O=C(NC(OCc1ccccc1)(C(F)(F)F)C(F)(F)F)OCc1ccccc1	Criterion met
C[C@]12CC[C@@H]3c4ccc(OC(=O)N(CCCl)CCCl)cc4CC[C@H]3[C@@H]1CC[C@@H]2OP(=O)(O)O	Criterion met
CC(C)C(=O)/C=C/c1c(Cl)cccc1Cl	Criterion met
O=C(NN1C(=O)CSC1c1c(Cl)cccc1Cl)C(O)c1ccccc1 (centres undefined)	Criterion met
COCCn1c2c([n+](Cc3cnccn3)c1C)C(=O)c1ccccc1C2=O	Criterion not met
NC(=O)c1csc(-c2ccc(CO)o2)n1	Criterion met
COc1cc(N2CCC(N)CC2)ccc1Nc1ncc(Cl)c(-c2c[nH]c3ccccc23)n1	Criterion not met
C[C@@H]1CC[C@@]2(C)[C@H](C)/C(=C\COC(=O)/C=C/c3ccc(O)c(O)c3)CC[C@@]12C	Criterion met
